experiment: solvent given as SMILES; settings: in O
# if value of absorption maximum reaches 500 nm, tag true; if it stays below, tag false

compound	category
CNc1ccc(/C=C/C(=O)OC)cc1	false
COc1ccc2cc([C@H](C)C(=O)O)ccc2c1	false
[NH3+]C(Cc1ccc(O)c(O)c1)C(=O)[O-] (stereo unspecified)	false
Nc1cc[nH]c(=S)n1	false
CC(=O)c1ccn2c3c(c(-c4cc[n+](C)cc4)c2c1)CN(C)C3=O	false
O=C(O)COc1cccc(OCC(=O)O)c1-c1c2ccc(=[N+]3CCCCC3)cc-2oc2cc(N3CCCCC3)ccc12	true
O=C([O-])c1ccccc1-c1c2cc(I)c(=O)c(I)c-2oc2c(I)c([O-])c(I)cc12	true
CC[n+]1c(-c2ccccc2)c2cc(N)ccc2c2ccc(NC(N)=O)cc21	false
C/C=C/C=C/C1=NC(=C\c2ccc([O-])cc2)/C(=O)N1C	false
CC(=O)OCCOCCN1C(=O)c2cc(NCCOCCO)c3c4c(cc(NCCOCCO)c(c24)C1=O)C(=O)N(CCOCCOC(C)=O)C3=O	true
CN(C)c1ccc2c(c1)C(=O)NC2=O	false

###

Collected absorption maximum values appear next to each entry.
assay: solvent given as SMILES; conditions: in CCCCCC

moleculeSmiles	absorption maximum (nm)
F[B-]1(F)n2cccc2C(c2ccc(-c3c4ccccc4c(-c4ccccc4)c4ccccc34)cc2)=C2C=CC=[N+]21	501
CC1=CC(C)=[N+]2C1=C(c1c3ccccc3cc3ccccc13)c1c(C)cc(C)n1[B-]2(F)F	504
CC1=N/C(=C\c2cccc(N(C)C)c2)C(=O)N1C	352
CC1=N/C(=C\c2cccc(N(C)C)c2)C(=O)N1CCO	352
CI	259
Cc1ccc(C2=[N+]3C(=Cc4c(C)cc(C)n4[B-]3(F)F)c3ccccc32)[nH]1	607
CCCCCCC(CCCCCC)N1C(=O)c2cccc3c(-c4ccc(-c5ccc(OC)cc5)cc4)ccc(c23)C1=O	354
CCc1ccc(/C=N/c2cc(C(C)C)c(O)cc2C)cc1	342
CCC1=C(C)C2=C(C)c3c(C)c(CC)c(C)n3[B-](F)(F)[N+]2=C1C	521.1
F[B-]1(F)n2c(NCc3ccccc3)ccc2C(c2c(Cl)cccc2Cl)=C2C=CC(NCc3ccccc3)=[N+]21	581
Nc1ccc(/C=C/c2cccnc2)cc1	336

###

experiment: solvent given as SMILES; conditions: in O
# strict inequality: absorption maximum < 400 nm yields class 1, everything else yields class 0

molecule	category
COc1cc(C(=O)O)cc(OC)c1O	class 1
O=C(NCc1cc(=O)oc2cc(O)c(Br)cc12)c1cccnc1	class 1
CC/[NH+]=c1\cc2oc3cc(NCCC(=O)NC(CCC(=O)OC)C(=O)OC)c4ccccc4c3nc-2cc1C (centres undefined)	class 0
CCOC(=O)CCCCCn1c2ccc(N)cc2c(=O)c2cc(N)ccc21	class 0
CC1(CCCCC(=O)NCCCCCCO)C(/C=C/C=C/C=C2/N(CCCS(=O)(=O)[O-])c3ccc(S(=O)(=O)[O-])cc3C2(C)C)=[N+](CCCS(=O)(=O)[O-])c2ccc(S(=O)(=O)[O-])cc21 (centres undefined)	class 0
Cc1cn(C)c(=O)nc1-n1cncn1	class 1
COc1cc(OC)cc(-c2ccc(-c3ccc(C#N)s3)s2)c1	class 1
Cc1ccc(C2=C3C=CC(=[N+](C)C)C=C3[Si](C)(C)c3cc(N(C)C)ccc32)c(C)c1	class 0
COC(=O)C(Cc1ccc2oc(-c3ccc(N(c4ccccc4)c4ccccc4)cc3)nc2c1)NC(=O)OC(C)(C)C (centres undefined)	class 1
CCCCC[n+]1ccc(/C=C/c2ccc(N(C)C)c3ccccc23)c2ccccc21	class 0
COCCOCCOCCOc1ccc(OCCOCCOCCOC)c(C=O)c1	class 1
CN(C)c1ccc(/C=C/C=N/N=C/c2ccc3ccc4cccc5ccc2c3c45)cc1	class 0
CC/[NH+]=c1\cc2oc3cc(NCCOC(=O)C(NC(=O)OC(C)(C)C)C(C)C)c4ccccc4c3nc-2cc1C (centres undefined)	class 0
CN(C)c1ccc2cc3ccc(N(C)C)cc3nc2c1	class 0
CC1(C)CC(=O)C2=C(C1)Oc1ccc3ccc(O)cc3c1C2c1ccccn1 (centres undefined)	class 1
O=c1ccc2ccccc2o1	class 1
c1ccc(-c2nc3c(ccc4[nH]ccc43)o2)cc1	class 1
N#Cc1ccc(C[C@H](N)C(=O)O)cc1	class 1
CN(C)c1ccc2[c](c1)[Sn]([CH3])([CH3])[C]1=CC(=[N+](C)C)C=CC1=C2	class 0
CN(CCO)c1ccc(/C=C/C2=C(C#N)C(C(C#N)C#N)OC2(C)C)cc1 (centres undefined)	class 0
[NH3+]C(Cc1ccccc1)C(=O)[O-] (centres undefined)	class 1
CC[N+]1(CC)CN2C(=N1)C(C(=O)O)=Cc1cc(F)ccc12	class 1
CN1/C(=C/C=C(/C=C/c2sc3ccccc3[n+]2C)c2ccc(F)cc2)Sc2ccccc21	class 0
CC[N+]1(CC)CN2C(=N1)C(C(=O)O)=Cc1cc(Oc3ccccc3)ccc12	class 1
O=c1[nH]c(=O)n([C@@H]2O[C@H](CO)[C@@H](O)[C@H]2O)cc1-c1cc2ccccc2s1	class 1
NC(=O)CC[C@H](/[NH+]=C\C=C1\C=C(C(=O)O)N[C@H](C(=O)O)C1)C(=O)O	class 0
O=C(O)c1cccc2c(=O)c3ccccc3[nH]c12	class 0
CN(C)c1ccc(/C=C/c2cc[n+](CCCCC[n+]3ccc(/C=C/c4ccc(N(C)C)cc4)cc3)cc2)cc1	class 0
COc1cc(/C=C/CO)ccc1O	class 1
Cn1c(=O)c(/N=N/c2cc(S(=O)(=O)O)ccc2C(=O)O)c(O)c2ccccc21	class 0
CCOC(=O)CCOc1ccccc1C(c1c(C)[nH]c2ccccc12)c1c(C)[nH]c2ccccc12	class 1
CCCC(=O)c1c2c(c(C(=O)CCC)c3c1OC(CC(=O)OC)(C(=O)O)O3)OCO2	class 0
N[C@@H](Cc1ccc(O)cc1)C(=O)O	class 1
COc1ccc2c3c([nH]c2c1)C(C)=NCC3	class 1
